Reference source: patent US10849893B2

# assay.procedure: clinical
# reported.conditions: human, plasma, po, 75 mg/m2, AUCINF—obs, oral 75 mg/m^2 with Compound A; Mean, N=3

compound	AUC(0-inf)
CC(=O)O[C@@]12CO[C@@H]1C[C@H](O)[C@@]1(C)C(=O)[C@H](O)C3=C(C)[C@@H](OC(=O)[C@H](O)[C@@H](NC(=O)OC(C)(C)C)c4ccccc4)C[C@@](O)([C@@H](OC(=O)c4ccccc4)[C@H]21)C3(C)C [docetaxel]	815 ng·h/mL

====

# assay.procedure: clinical
# reported.conditions: human, plasma, po, 35 mg/m2, Cmax, oral 35 mg/m^2 with Compound A; individual subjects

mol.smiles	Cmax
CC(=O)O[C@@]12CO[C@@H]1C[C@H](O)[C@@]1(C)C(=O)[C@H](O)C3=C(C)[C@@H](OC(=O)[C@H](O)[C@@H](NC(=O)OC(C)(C)C)c4ccccc4)C[C@@](O)([C@@H](OC(=O)c4ccccc4)[C@H]21)C3(C)C	38 to 157 ng/mL

====

# assay.procedure: clinical
# reported.conditions: human, plasma, po, 225 mg/m2, AUCINF—obs, oral 225 mg/m^2 with Compound A; Mean, N=3
attribute.measured: AUC(0-inf) (ng·h/mL)

compound	assay.value
CC(=O)O[C@@]12CO[C@@H]1C[C@H](O)[C@@]1(C)C(=O)[C@H](O)C3=C(C)[C@@H](OC(=O)[C@H](O)[C@@H](NC(=O)OC(C)(C)C)c4ccccc4)C[C@@](O)([C@@H](OC(=O)c4ccccc4)[C@H]21)C3(C)C [docetaxel]	1190

====

# assay.procedure: clinical
# reported.conditions: human, plasma, po, 150 mg/m2, AUC0-12, oral 150 mg/m^2 with Compound A; individual subjects

molecule	AUC(0-t) / ng·h/mL
CC(=O)O[C@@]12CO[C@@H]1C[C@H](O)[C@@]1(C)C(=O)[C@H](O)C3=C(C)[C@@H](OC(=O)[C@H](O)[C@@H](NC(=O)OC(C)(C)C)c4ccccc4)C[C@@](O)([C@@H](OC(=O)c4ccccc4)[C@H]21)C3(C)C [docetaxel]	446

====

# assay.procedure: clinical
# reported.conditions: human, plasma, po, 225 mg/m2, t1/2, oral 225 mg/m^2 with Compound A; Mean, N=3

mol.smiles	half-life / h
CC(=O)O[C@@]12CO[C@@H]1C[C@H](O)[C@@]1(C)C(=O)[C@H](O)C3=C(C)[C@@H](OC(=O)[C@H](O)[C@@H](NC(=O)OC(C)(C)C)c4ccccc4)C[C@@](O)([C@@H](OC(=O)c4ccccc4)[C@H]21)C3(C)C	56

====

# assay.procedure: Two phase 1 studies of docetaxel capsules administered orally in combination with HM30181A
# Type: in vivo, human
# reported.conditions: human, plasma, po, oral 35 mg/m^2 with HM30181A 15 mg
attribute.measured: AUC (ng·h/mL)

mol.smiles	attribute.measured	assay.value
CC(=O)O[C@@]12CO[C@@H]1C[C@H](O)[C@@]1(C)C(=O)[C@H](O)C3=C(C)[C@@H](OC(=O)[C@H](O)[C@@H](NC(=O)OC(C)(C)C)c4ccccc4)C[C@@](O)([C@@H](OC(=O)c4ccccc4)[C@H]21)C3(C)C	AUC	248

====

# assay.procedure: clinical
# reported.conditions: human, plasma, po, 150 mg/m2, t1/2, oral 150 mg/m^2 with Compound A; individual subjects
attribute.measured: half-life (h)

mol.smiles	attribute.measured	unit.abbrev	assay.value
CC(=O)O[C@@]12CO[C@@H]1C[C@H](O)[C@@]1(C)C(=O)[C@H](O)C3=C(C)[C@@H](OC(=O)[C@H](O)[C@@H](NC(=O)OC(C)(C)C)c4ccccc4)C[C@@](O)([C@@H](OC(=O)c4ccccc4)[C@H]21)C3(C)C	half-life	h	72
